# Lookup of reported cytotoxicity at 10 µM keyed by entry
Experiment Summary: Toxicity liver stage against HepG2, at 10uM
Assay type: cell-based
Parameters: test concentration 10 uM, cell line HepG2-A16-CD81EGFP
Assay Context: human, HepG2-A16-CD81EGFP cells; read-out: INHIBITION
Lab book: enter the figure in %, no units written.

CC1(C(=O)NCCCOc2ccccc2F)CC(=O)N2C=CC=CC2=N1 (centres undefined) ... 2.28
O=C1NCCN(CC2CCCCC2)C1CC(=O)N1CCc2n[nH]cc2C1 (centres undefined) ... -3.76
CCOc1c(Cl)cccc1NS(=O)(=O)c1cc(C)c(C(=O)O)s1 ... 2.13
Cc1ccccc1C(C(=O)NCc1nc(-c2ncccn2)no1)N(C)C (centres undefined) ... 3.09
Cc1nnc(NCc2ccc(Br)cc2)o1 ... 1.66
Cc1ccc(N2CCC3(CCCN3Cc3ccn(C)n3)CC2)nn1 ... 11.6
c1coc(CN2C[C@@H]3OCCN(CC4CCCO4)[C@@H]3C2)c1 (some centres undefined) ... -83.1
CC(Cc1ccsc1)NC(=O)c1cc(N2CCNC2=O)ccc1F (centres undefined) ... -4.62

Query: Requested field: cytotoxicity at 10 µM. Item: Cc1cnn(CC2CCCCN2C(=O)c2nccnc2N)c1 (centres undefined)
Response: -3.03

Query: Which cytotoxicity at 10 µM value is on record for CN1CC(C(=O)N2CCN(c3cccc(Cl)c3)C(=O)C2)NC1=O (centres undefined) ?
Response: -3.94
